Values compiled from patent US11241427B2.

# key: entry, value: ΔTm at 100 µM
# target.or.system: NR2F6 (ligand binding domain, amino acids 163-404) (Homo sapiens, UniProt P10588)
# Construct: HIS (N, cleaved yes); FLAG (N, cleaved yes); TEV site (N, cleaved yes); made in house; host or cells: E. coli BL21 (DE3)
# Sequence (P10588 163-404): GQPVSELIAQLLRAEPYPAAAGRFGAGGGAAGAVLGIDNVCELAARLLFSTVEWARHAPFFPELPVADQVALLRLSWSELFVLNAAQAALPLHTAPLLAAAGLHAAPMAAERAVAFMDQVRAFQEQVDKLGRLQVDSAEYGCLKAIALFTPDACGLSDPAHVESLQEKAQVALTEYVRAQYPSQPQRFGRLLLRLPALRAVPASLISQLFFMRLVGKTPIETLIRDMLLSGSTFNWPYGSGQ
# assay.method.text: Thermoshift analysis (TSA) of compound binding to NR2F6
# stated.conditions: Table 1.1; 100 μM compound; shift versus NR2F6 alone (Tm 48 °C); read-out: delta Tm
Unit °C implied. Number only.

Below: 5 compounds and their reported ΔTm at 100 µM.
C[C@H](CCC(=O)NCCS(=O)(=O)O)[C@H]1CC[C@H]2[C@@H]3CC[C@@H]4C[C@H](O)CC[C@]4(C)[C@H]3C[C@H](O)[C@]12C    -0.5
CCN(CC)S(=O)(=O)c1cccc(NC(=O)CNc2cccc(S(=O)(=O)N3CCCC3)c2)c1    1
CO[C@H]1/C=C/O[C@@]2(C)Oc3c(C)c(O)c4c(O)c(c(/C=N/N5CCN(C)CC5)c(O)c4c3C2=O)NC(=O)/C(C)=C\C=C\[C@H](C)[C@H](O)[C@@H](C)[C@@H](O)[C@@H](C)[C@H](OC(C)=O)[C@@H]1C    1.5
Cc1c(C)c2c(c(C)c1O)CCC(C)(COc1ccc(CC3SC(=O)NC3=O)cc1)O2 (stereo not drawn)    0
CC(C)(Sc1ccc(CCN(CCCCC2CCCCC2)C(=O)NC2CCCCC2)cc1)C(=O)O    -2.5

Query compound follows.
What does the data say about its ΔTm at 100 µM? Entry: CC1(COc2ccc(CC3SC(=O)NC3=O)cc2)CCCCC1 (stereo not drawn)
-0.5

---

# target.or.system: NR2F6 (ligand binding domain, amino acids 163-404) (Homo sapiens)
# Construct: HIS (N, cleaved yes); FLAG (N, cleaved yes); TEV site (N, cleaved yes); made in house; host or cells: E. coli BL21 (DE3)
# Sequence (P10588 163-404): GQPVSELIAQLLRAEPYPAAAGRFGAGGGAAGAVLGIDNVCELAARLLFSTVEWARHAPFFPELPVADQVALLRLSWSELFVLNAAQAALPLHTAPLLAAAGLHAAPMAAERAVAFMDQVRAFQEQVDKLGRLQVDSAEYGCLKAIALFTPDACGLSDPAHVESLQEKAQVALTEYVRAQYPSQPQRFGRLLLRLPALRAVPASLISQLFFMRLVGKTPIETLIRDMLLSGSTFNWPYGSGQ
# assay.method.text: Thermoshift analysis (TSA) of compound binding to NR2F6
# stated.conditions: Table 1.1; 100 μM compound, 0.5 mg/ml NR2F6, 1% DMSO; NR2F6 alone Tm 48 °C
# key: entry, value: Tm
Unit °C implied. Number only.

Below: 5 molecules and their reported Tm.
Clc1ccc(-c2nc3sccn3c2/C=N/OCc2ccc(Cl)c(Cl)c2)cc1 [Cpd 85, CITCO]    48
CC(=O)c1c(C)[nH]c(C(=O)COc2cc(C)ccc2C(C)C)c1C [Cpd 125]    47.5
CC(C)c1onc(-c2c(Cl)cccc2Cl)c1COc1ccc(/C=C/c2cccc(C(=O)O)c2)c(Cl)c1 [Cpd 82, GW4064]    35
N[C@@H](Cc1cc(I)c(O)c(I)c1)C(=O)O [Cpd 86, 3,5-Diiodo-L-tyrosine]    50
Cc1cccc(Nc2cc(Cl)nc(SCC(=O)O)n2)c1C [Cpd 66, WY-14643]    47.5

What does the data say about its Tm? Entry: CC(=O)c1c(C)[nH]c(C(=O)OCC(=O)Nc2ccc(Cl)cc2[N+](=O)[O-])c1C [Cpd 139]
48.5

What does the data say about its Tm? Entry: COc1ccc(CN(C)c2ccc(S(=O)(=O)N3CCN(C)CC3)cc2[N+](=O)[O-])cc1OC [Cpd 129]
47.5

What does the data say about its Tm? Entry: COc1ccc(CNc2ncnc3ccccc23)cc1 [Cpd 126]
47.5

What does the data say about its Tm? Entry: CCN(CC)S(=O)(=O)c1cccc(NC(=O)CNc2cccc(S(=O)(=O)N3CCCC3)c2)c1 [Cpd 133]
49
